This collection of values is drawn from PubChem BioAssay (Tox21).

# tested system: Cytochrome P450 2D6 (Homo sapiens) (UniProt P10635)
# Sequence (P10635 whole entry, looked up): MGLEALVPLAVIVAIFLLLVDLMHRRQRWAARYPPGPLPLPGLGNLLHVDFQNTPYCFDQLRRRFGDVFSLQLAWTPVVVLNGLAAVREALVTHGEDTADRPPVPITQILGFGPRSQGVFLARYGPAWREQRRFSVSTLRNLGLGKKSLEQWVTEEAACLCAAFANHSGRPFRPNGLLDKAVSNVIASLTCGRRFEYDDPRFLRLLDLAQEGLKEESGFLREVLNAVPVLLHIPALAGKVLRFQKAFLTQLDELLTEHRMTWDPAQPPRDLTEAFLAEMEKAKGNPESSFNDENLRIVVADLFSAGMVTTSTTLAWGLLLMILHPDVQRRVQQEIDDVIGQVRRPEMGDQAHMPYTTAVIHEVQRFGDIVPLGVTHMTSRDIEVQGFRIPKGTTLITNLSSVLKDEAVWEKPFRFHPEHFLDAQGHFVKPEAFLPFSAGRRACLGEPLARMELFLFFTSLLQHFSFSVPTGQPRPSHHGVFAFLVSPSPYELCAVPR
# test: Cytochrome P450 Family 2 Subfamily D Member 6 (CYP2D6) small molecule antagonists: luciferase reporter qHTS assay (AID 1671196); further: nearly all actives have a fitted effect of over 50% in size
# recorded conditions: P450-Glo CYP2D6 enzyme assay, luciferin luminescence, 1 h; series mostly up to 115 µM
Results filed as inconclusive are left out. Activity calls are given as the source filed them. The call rests on the fitted dose curve; in most records, active means well fitted inhibition curve with a large enough effect in the repeat runs; inconclusive means weak or mixed curves; inactive means no such curve, though single readings can be large or run the other way.
Outcomes: Y (active), N (inactive)

smiles entry | category
O=[N+]([O-])c1ccc(Cl)c(Cl)c1Cl | N
CN(C)CCc1c[nH]c2ccccc12 | Y
N#CCCl | Y
COc1cnc(OC)n2nc(NS(=O)(=O)c3c(OCC(F)F)cccc3C(F)(F)F)nc12 | N
